Assay: Single-dose pharmacokinetics of apixaban in plasma and urine
Type: in vivo, human
Conditions: male, human, plasma, oral, mean T1/2 values across doses, Japanese subjects, 2.5–50 mg
QUANTITY_KIND: half-life

Prompt: I would be grateful if you could share the reported half-life for COc1ccc(-n2nc(C(N)=O)c3c2C(=O)N(c2ccc(N4CCCCC4=O)cc2)CC3)cc1 .
Completion: 6.1 to 8.5 h

* * *

Test: Single-dose pharmacokinetics of apixaban in plasma and urine
Format: in vivo, human
Details: male, human, plasma, oral, mean half-life, Caucasian subjects, across doses
QUANTITY_KIND: half-life

Prompt: I would be grateful if you could share the reported half-life for COc1ccc(-n2nc(C(N)=O)c3c2C(=O)N(c2ccc(N4CCCCC4=O)cc2)CC3)cc1 .
Completion: ~13 h
